test system: mouse myoblasts (C2C12) myotubes; test: C2C12 myotube atrophy induced by C26 cell culture medium (HE staining, myotube diameter); type: cell-based; details: 25 μM, 48 h, C26 medium-induced C2C12 myotubes
Grouping key: Myotube atrophy reversal rate (%). Bins: lo = under 20%, med = from 20% up to 30%, hi = 30% and over

Compound: CCCCCCCCCCCCSSC(=S)N1CCC1
Class label: med
//
Compound: CCCCCCCCCCCCSSC(=S)N1CCOCC1
Class label: med
//
Compound: CCCCCCCCCCCCCCCCCCSSC(=S)N1CCCC1
Class label: lo
//
Compound: CCCCCCCCCCCCCSSC(=S)N1CCCC1
Class label: med

Could you now look at the following compound, please?
Request: In plain terms, what class is CCCCCCCCCCCCSSC(=S)N1CCCCC1 ?
Result: lo
